molecular target: Ribosomal protein S6 kinase beta-1 (Homo sapiens); test: Inhibition of p70S6K at 10 uM by HTRF assay relative to control
Kindly supply the reported inhibition values for the records listed here.
Write down the numeric answer in % and omit the unit.

Recorded inhibition for `Cc1cccc(Oc2ccnc(N3CCC[C@H]3C(=O)NCc3cccnc3)n2)c1` , please?
16

Need inhibition, item `Cc1cccc(N(C)c2cc(N3CCN(CC(=O)Nc4nc(-c5ccccc5)cs4)CC3)ncn2)c1`
3

Name the reported inhibition value associated with the compound `CN(C)CC(C)(C)CNC(=O)c1cccc(Nc2nccc(Nc3ccc4ncsc4c3)n2)c1`
18

Name the recorded inhibition for `Nc1nc(Nc2ccc3ncsc3c2)cc(N2CCC[C@H]2C(=O)NCCc2cccc(I)c2)n1` .
10

I would be grateful if you could share the reported inhibition for `COc1ccc(NC(=O)Cc2ccc(Nc3cc(N(C)c4cccc(C)c4)ncn3)cc2)cn1` .
6

Consider the compound shown here: `COc1cccc(Nc2cc(N3CCC[C@H]3C(=O)NCCc3ccc(O)cc3)nc(N)n2)c1` What is its recorded inhibition?
7

// inhibition lookup, key: `O=C(NC[C@@H]1CCCO1)c1cccc(Nc2nccc(Nc3ccc4ncsc4c3)n2)c1`
23

Requested read-out: inhibition. Entry: `CN(CCc1ccccn1)C(=O)c1cccc(Nc2nccc(Nc3ccc4ncsc4c3)n2)c1`
19

* * *

test: Inhibition of IRK at 10 uM by HTRF assay relative to control
READOUT: inhibition (%)
Quick reminder: number only, in %, skip the unit.

GET /values?readout=inhibition&item= `CN(C)CC(C)(C)CNC(=O)[C@@H]1CCCN1c1nccc(Nc2ccccc2)n1`
0

For the compound shown here, `Cc1cccc(Nc2nccc3c2CN(C(=O)c2cc(C)n(C)c2C)CC3)c1` , give the reported inhibition.
0

Tell me the measured inhibition of `Nc1nc(N2CCOCC2)cc(N2CCC(C(=O)NCc3cccs3)CC2)n1` , please.
0

Report inhibition for `COc1ccc(-c2noc(CN3CCN(c4cc(Nc5cccc(O)c5)ncn4)CC3)n2)cc1` please.
0

State the recorded inhibition for this entry: `Cc1cccc(Nc2nccc(Nc3cccc(C(=O)N(C)CCc4ccccn4)c3)n2)c1`
66

Given the entry `CN(CCc1ccccn1)C(=O)c1cccc(Nc2nccc(Nc3ccc4ncsc4c3)n2)c1` , report its measured inhibition.
34

Given the entry `Cc1cccc(N(C)c2cc(Nc3cccc(C(=O)N(C)CCc4ccccn4)c3)ncn2)c1` , report its measured inhibition.
0

Requested read-out: inhibition. Entry: `Cc1cccc(N(C)c2cc(Nc3cccc(C(=O)NCc4ccncc4)c3)ncn2)c1`
0

What value of inhibition has been recorded for this entry: `Nc1nc(Nc2ccc3ncsc3c2)cc(N2CCC[C@H]2C(=O)NCCc2cccc(I)c2)n1`
0

# input compound: `CN(CCCn1ccnc1)C(=O)[C@@H]1CCCN1c1nccc(Nc2ccccc2)n1` ; wanted: its inhibition
0

Recorded inhibition of `COc1cccc(Nc2cc(N3CCC[C@H]3C(=O)NCCN3CCCCC3)nc(N)n2)c1` , please.
0

Request the reported inhibition associated with `Nc1nc(Nc2ccccc2)cc(N2CCC(C(=O)NCCc3ccccn3)CC2)n1`
0

Dear colleague, I am looking for the recorded inhibition of the following compound: `Cc1cccc(Nc2nccc(Nc3cccc(C(=O)NCc4ccc(N(C)C)cc4)c3)n2)c1`
0

What inhibition value was documented for this compound, `Cc1cccc(N(C)c2cc(Nc3cccc(C(=O)N(CC(C)C)CC(C)C)c3)ncn2)c1` ?
0

Dear colleague, I am looking for the recorded inhibition of the following compound: `COc1ccc(NC(=O)Cc2ccc(Nc3cc(N(C)c4cccc(C)c4)ncn3)cc2)cn1`
0

Which value of inhibition has been reported for `Nc1nc(Nc2ccc3ncsc3c2)cc(N2CCC[C@H]2C(=O)N[C@@H](CO)c2ccccc2)n1` in the records?
1

Need inhibition, item `O=C(c1nc(SCc2ccc(Cl)cc2)n2ccccc12)N1CCN(c2cc(Nc3cccc(Br)c3)ncn2)CC1`
0

Request the reported inhibition associated with `O=C(C1CCN(c2nccc(Nc3ccccc3)n2)CC1)N1CC[C@@H](O)C1`
0

Record request: inhibition value, item `Cc1cccc(CN2CCN(c3cc(N(C)c4cccc(C)c4)ncn3)CC2)c1`
0

* * *

target: Rho-associated protein kinase 2 (Homo sapiens); experiment: Inhibition of ROCK2 at 10 uM by HTRF assay relative to control
READOUT: inhibition (%)
Dear colleague, please return just the value in %, with no unit written.

Need inhibition, item `Cc1cccc(Nc2nccc3c2CN(C(=O)c2cc(C)n(C)c2C)CC3)c1`
0

So what does the record say about inhibition for `Cc1cccc(Nc2nccc(Nc3cccc(C(=O)N(C)CCc4ccccn4)c3)n2)c1` ?
5

Find the recorded inhibition belonging to `Cc1cccc(Oc2ccnc(N3CCN(C(=O)c4c(C)noc4C)CC3)n2)c1` and report it.
0

What inhibition value was documented for this compound, `Cc1cccc(Oc2ccnc(N3CCC[C@H]3C(=O)NCCCn3ccnc3)n2)c1` ?
0

What value of inhibition has been recorded for this entry: `O=C(COc1ccccc1)N1CCN(c2nccc(Nc3ccc4ncsc4c3)n2)CC1`
7

# get_value(readout='inhibition', item= `O=C(NCc1cccnc1)c1cccc(-c2ccc(Nc3ccc4ncsc4c3)nn2)c1` )
93

Would you mind telling me what inhibition value was observed for `COC[C@@H]1CCCN1C(=O)[C@@H]1CCCN1c1cc(Nc2cccc(OC)c2)nc(N)n1` ?
0

Return reported inhibition; argument: `Nc1nc(Nc2ccc(C(=O)NCCc3ccncc3)cc2)cc(N2CCOCC2)n1`
1

Can you share its inhibition? I mean this compound: Cc1cccc(N(C)c2cc(Nc3cccc(C(=O)N4CCCC5CCCCC54)c3)ncn2)c1 (stereo not given)
0

Which value of inhibition has been reported for `COc1ccc(-c2noc(CN3CCN(c4cc(Nc5cccc(O)c5)ncn4)CC3)n2)cc1` in the records?
0

Given the entry `COc1cccc(Nc2cc(Nc3cccc(C(=O)NCCCn4ccnc4)c3)nc(N)n2)c1` , report its measured inhibition.
12

Record request: inhibition value, item `O=C(c1nc(SCc2ccc(Cl)cc2)n2ccccc12)N1CCN(c2ncnc3c2CN(Cc2ccccc2)CC3)CC1`
0

I'd like to know its inhibition. The compound in question is `COc1cccc(Nc2cc(N3CCC[C@H]3C(=O)NCCN3CCCCC3)nc(N)n2)c1`
0

Field request: inhibition | item: `Cc1cccc(CN2CCN(c3cc(N(C)c4cccc(C)c4)ncn3)CC2)c1`
1

Query: inhibition; subject: `CN(C)CC(C)(C)CNC(=O)C1CCN(c2cc(N3CCOCC3)nc(N)n2)CC1`
0

Need inhibition, item `O=C(NCc1ccncc1)c1cccc(Nc2cc(Nc3cccc(Br)c3)ncn2)c1`
13

Consider the compound `Cc1cc(C(=O)N2CCN(c3ncnc4c3CN(Cc3ccccc3)CC4)CC2)c(C)n1C` and give its measured inhibition.
0

What does the data say about its inhibition? Entry: Cc1cccc(Nc2cc(Nc3cccc(C(=O)N(CC(C)O)CC(C)O)c3)ncn2)c1 (stereo not given)
2

What does the record list as inhibition for `Nc1nc(Nc2ccc3ncsc3c2)cc(N2CCC[C@H]2C(=O)N[C@@H](CO)c2ccccc2)n1` ?
2

Recorded inhibition for `COc1cccc(Nc2cc(Nc3cccc(C(=O)N(C)CCc4ccccn4)c3)nc(N)n2)c1` , please?
2

* * *

molecular target: Receptor-type tyrosine-protein kinase FLT3 (Homo sapiens) (UniProt P36888); assay: Inhibition of FLT3 at 10 uM by HTRF assay relative to control
Sequence (P36888 whole entry): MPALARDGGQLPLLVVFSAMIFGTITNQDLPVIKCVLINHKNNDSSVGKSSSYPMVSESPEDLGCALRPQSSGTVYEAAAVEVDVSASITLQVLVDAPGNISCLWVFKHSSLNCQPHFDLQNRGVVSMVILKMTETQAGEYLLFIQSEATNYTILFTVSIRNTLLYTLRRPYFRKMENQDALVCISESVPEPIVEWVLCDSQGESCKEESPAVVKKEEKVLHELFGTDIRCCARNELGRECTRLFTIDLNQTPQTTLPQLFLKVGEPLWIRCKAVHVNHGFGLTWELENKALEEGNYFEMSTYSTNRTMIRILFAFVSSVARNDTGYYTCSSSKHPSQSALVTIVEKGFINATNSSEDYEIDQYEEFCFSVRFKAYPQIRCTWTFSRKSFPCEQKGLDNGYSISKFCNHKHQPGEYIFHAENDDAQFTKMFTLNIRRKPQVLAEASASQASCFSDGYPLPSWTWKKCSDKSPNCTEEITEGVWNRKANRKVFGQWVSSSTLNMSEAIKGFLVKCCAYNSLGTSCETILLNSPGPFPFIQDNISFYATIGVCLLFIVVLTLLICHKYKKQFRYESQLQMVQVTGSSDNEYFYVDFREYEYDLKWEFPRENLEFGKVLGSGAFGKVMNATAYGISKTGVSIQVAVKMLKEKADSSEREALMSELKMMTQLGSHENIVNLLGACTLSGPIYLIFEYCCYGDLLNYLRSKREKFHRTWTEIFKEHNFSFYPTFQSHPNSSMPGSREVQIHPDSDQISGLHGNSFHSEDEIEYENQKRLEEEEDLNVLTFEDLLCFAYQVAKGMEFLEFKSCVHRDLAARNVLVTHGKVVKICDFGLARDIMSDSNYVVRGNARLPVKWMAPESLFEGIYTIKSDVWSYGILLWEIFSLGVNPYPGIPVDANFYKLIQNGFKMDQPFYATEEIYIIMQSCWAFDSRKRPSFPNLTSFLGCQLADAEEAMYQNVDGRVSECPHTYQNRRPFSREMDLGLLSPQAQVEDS
Task for the reader: assign each of the following molecules its reported inhibition.

Find the recorded inhibition belonging to `Nc1nc(Nc2ccc3ncsc3c2)cc(N2CCC[C@H]2C(=O)N[C@@H](CO)c2ccccc2)n1` and report it.
0%

Bench note: what inhibition did COC[C@@H]1CCCN1C(=O)C1CCCN1c1cc(Nc2cccc(Br)c2)ncn1 (stereo partly drawn) show?
0%

Return reported inhibition; argument: Cc1cccc(N(C)c2cc(Nc3cccc(C(=O)N4CCCC5CCCCC54)c3)ncn2)c1 (stereo not drawn)
0%

Give the measured inhibition of `Cc1cccc(Nc2ncnc3c2CN(C(=O)c2ccc(N(C)C)c4ccccc24)CC3)c1` .
0%

Tell me the measured inhibition of `Cc1cccc(Oc2ccnc(N3CCN(CC(=O)Nc4cccc5c4CCCC5)CC3)n2)c1` , please.
0%

Give the measured inhibition of `O=C(CN1CCN(c2ncnc3c2CN(Cc2ccccc2)CC3)CC1)Nc1cc(F)ccc1F` .
0%

Entry under review: `Nc1nc(Nc2ccc(C(=O)NCCc3ccncc3)cc2)cc(N2CCOCC2)n1` . Reported inhibition?
0%

Fill in the blank: the reported inhibition of `COc1ccc(NC(=O)Cc2ccc(Nc3cc(N(C)c4cccc(C)c4)ncn3)cc2)cn1` is ____.
11%

Give the measured inhibition of `COc1cccc(Nc2cc(Nc3cccc(C(=O)NCCCn4ccnc4)c3)nc(N)n2)c1` .
1%

Which inhibition value belongs to `Nc1nc(N2CCOCC2)cc(N2CCC(C(=O)NCCc3ccc(O)cc3)CC2)n1` ?
0%

Given the entry `Nc1nc(Nc2ccc3ncsc3c2)cc(N2CCC[C@H]2C(=O)NCCc2cccc(I)c2)n1` , report its measured inhibition.
11%

Param item = `COc1cccc(Nc2cc(N3CCC[C@H]3C(=O)NCCN3CCCCC3)nc(N)n2)c1` ; retrieve measured inhibition.
0%

Which inhibition is listed for `Cc1cccc(Nc2nccc(Nc3cccc(C(=O)N(C)CCc4ccccn4)c3)n2)c1` ?
86%

# inhibition lookup, item `Cc1cccc(Oc2ccnc(N3CCC[C@H]3C(=O)NCCCn3ccnc3)n2)c1`
0%

Param item = `COc1cccc(Nc2cc(N3CCC[C@H]3C(=O)NCCc3ccc(O)cc3)nc(N)n2)c1` ; retrieve measured inhibition.
0%

Bench note: what inhibition did `O=C(NC[C@@H]1CCCO1)c1cccc(Nc2nccc(Nc3ccc4ncsc4c3)n2)c1` show?
99%

Consider the molecule shown here: `Cc1cccc(N(C)c2cc(Nc3ccc(CC(=O)Nc4ccc5ncsc5c4)cc3)ncn2)c1` What is its recorded inhibition?
67%

Which value of inhibition has been reported for `O=C(NCCc1ccc(O)cc1)c1cccc(Nc2nccc(Nc3ccc4ncsc4c3)n2)c1` in the records?
98%
